- Test system: SK-BR-3
- protocol.summary: drug sensitivity score (DSS), CellTiter-Blue viability (DSS (AUC-based score)); higher = stronger viability inhibition; extreme values may be limits of the assay
- measurement.parameters: incubation time: 72 h
Think of 7 as a floor: if drug sensitivity score stands on it or above, it is fulfilled; beneath it, not fulfilled.

{"compound": "O=C(Cc1ccc(-c2ccc(OCCN3CCOCC3)cc2)cn1)NCc1ccccc1", "discrete.label": "fulfilled"}
{"compound": "Nc1nc(F)nc2c1ncn2[C@@H]1O[C@H](CO)[C@@H](O)[C@@H]1O", "discrete.label": "not fulfilled"}
{"compound": "CCCS(=O)(=O)Nc1ccc(F)c(C(=O)c2c[nH]c3ncc(-c4ccc(Cl)cc4)cc23)c1F", "discrete.label": "not fulfilled"}
{"compound": "Cc1ccc(-c2cc(C(F)(F)F)nn2-c2ccc(S(N)(=O)=O)cc2)cc1", "discrete.label": "not fulfilled"}
{"compound": "N#Cc1ccc(C(c2ccc(C#N)cc2)n2cncn2)cc1", "discrete.label": "not fulfilled"}
{"compound": "COc1cc([C@@H]2c3cc4c(cc3[C@@H](O[C@@H]3O[C@@H]5CO[C@@H](c6cccs6)O[C@H]5[C@H](O)[C@H]3O)[C@H]3COC(=O)[C@H]23)OCO4)cc(OC)c1O [Teniposide]", "discrete.label": "fulfilled"}
{"compound": "Oc1ncc(N(CCCl)CCCl)c(O)n1", "discrete.label": "not fulfilled"}
{"compound": "CC1=C(/C=C/C(C)=C/C=C/C(C)=C/C(=O)O)C(C)(C)CCC1", "discrete.label": "fulfilled"}
{"compound": "O=C(/C=C/c1cccnc1)NCCCCC1CCN(C(=O)c2ccccc2)CC1", "discrete.label": "not fulfilled"}
{"compound": "C=CC(=O)N1CCC[C@@H](n2nc(-c3ccc(Oc4ccccc4)cc3)c3c(N)ncnc32)C1", "discrete.label": "fulfilled"}

* * *

- Test system: MCF-10A
- protocol.summary: drug sensitivity score (DSS), CellTox Green (DSS (AUC-based score)); higher = stronger drug effect (viability inhibition or cytotoxicity); extreme values may be limits of the assay
- measurement.parameters: incubation time: 72 h
metric: drug sensitivity score

{"compound": "CCCS(=O)(=O)Nc1ccc(F)c(C(=O)c2c[nH]c3ncc(-c4ccc(Cl)cc4)cc23)c1F [Vemurafenib]", "numeric.value": 2.59}
{"compound": "C=CC(=O)N1CCC[C@@H](n2nc(-c3ccc(Oc4ccccc4)cc3)c3c(N)ncnc32)C1 [Ibrutinib]", "numeric.value": 0}
{"compound": "O=C(O)C1(C(=O)O)CCC1.[NH2-].[NH2-].[Pt+2] [Carboplatin]", "numeric.value": 0}
{"compound": "Nc1nc2[nH]cc(CCc3ccc(C(=O)N[C@@H](CCC(=O)O)C(=O)O)cc3)c2c(=O)[nH]1 [Pemetrexed]", "numeric.value": 0.385}
{"compound": "CC[C@@H]1C(=O)N(C)c2cnc(Nc3ccc(C(=O)NC4CCN(C)CC4)cc3OC)nc2N1C1CCCC1 [BI 2536]", "numeric.value": 10.3}
{"compound": "CC[C@H](Nc1ncnc2[nH]cnc12)c1nc2cccc(F)c2c(=O)n1-c1ccccc1 [GS-1101]", "numeric.value": 0}

* * *

- Tested on: MFM-223
- protocol.summary: normalised response (% of control), CellTiter-Glo; higher = more viable cells (100 = DMSO, 0 = benzethonium chloride kill control)
- measurement.parameters: incubation time: 72 h
metric: normalised response (%)

{"compound": "CCCCC(=O)OCC(=O)[C@]1(O)Cc2c(O)c3c(c(O)c2[C@@H](O[C@H]2C[C@H](NC(=O)C(F)(F)F)[C@H](O)[C@H](C)O2)C1)C(=O)c1c(OC)cccc1C3=O [Valrubicin] (50 nM)", "metric": "normalised response", "numeric.value": 101}
{"compound": "CC[C@H](Nc1ncnc2[nH]cnc12)c1nc2cccc(F)c2c(=O)n1-c1ccccc1 [GS-1101] (100 nM)", "metric": "normalised response", "numeric.value": 91.9}
{"compound": "CCCS(=O)(=O)Nc1ccc(F)c(C(=O)c2c[nH]c3ncc(-c4ccc(Cl)cc4)cc23)c1F [Vemurafenib] (100 nM)", "metric": "normalised response", "numeric.value": 89.4}
{"compound": "Nc1nc2[nH]cc(CCc3ccc(C(=O)N[C@@H](CCC(=O)O)C(=O)O)cc3)c2c(=O)[nH]1 [Pemetrexed] (100 nM)", "metric": "normalised response", "numeric.value": 95.2}
{"compound": "COc1cc2c(Oc3ccc4[nH]c(C)cc4c3F)ncnc2cc1OCCCN1CCCC1 [Cediranib] (10 nM)", "metric": "normalised response", "numeric.value": 107}
{"compound": "N#Cc1ccc(C(c2ccc(C#N)cc2)n2cncn2)cc1 [Letrozole] (100 nM)", "metric": "normalised response", "numeric.value": 106}
{"compound": "Nc1nc(F)nc2c1ncn2[C@@H]1O[C@H](CO)[C@@H](O)[C@@H]1O [Fludarabine] (100 nM)", "metric": "normalised response", "numeric.value": 111}

* * *

Quick reference: EC50, CellTiter-Glo of the listed items.
- Test system: DU-4475
- measurement.parameters: 72 h

{"compound": "C=CC(=O)Nc1cc2c(Nc3ccc(F)c(Cl)c3)ncnc2cc1OCCCN1CCOCC1", "system": "DU-4475", "EC50, CellTiter-Glo": "8.21 µM"}
{"compound": "CCCCC(=O)OCC(=O)[C@]1(O)Cc2c(O)c3c(c(O)c2[C@@H](O[C@H]2C[C@H](NC(=O)C(F)(F)F)[C@H](O)[C@H](C)O2)C1)C(=O)c1c(OC)cccc1C3=O", "system": "DU-4475", "EC50, CellTiter-Glo": "0.462 µM"}
{"compound": "COc1cc([C@@H]2c3cc4c(cc3[C@@H](O[C@@H]3O[C@@H]5CO[C@@H](c6cccs6)O[C@H]5[C@H](O)[C@H]3O)[C@H]3COC(=O)[C@H]23)OCO4)cc(OC)c1O [Teniposide]", "system": "DU-4475", "EC50, CellTiter-Glo": "0.184 µM"}
{"compound": "CC[C@H](C)C(=O)O[C@H]1C[C@H](O)C=C2C=C[C@H](C)[C@H](CC[C@@H](O)C[C@@H](O)CC(=O)O)[C@H]21", "system": "DU-4475", "EC50, CellTiter-Glo": "6.59 µM"}

* * *

The compounds listed here are annotated with their normalised viability.
- System: MDA-MB-468
- protocol.summary: normalised viability (% of control), CellTiter-Blue; higher = more viable cells (about 100 = DMSO control)
- measurement.parameters: 10 nM; incubation time: 72 h
metric: normalised viability (%)

{"compound": "C[C@H]1C[C@@H]2[C@H]([C@@H](O)C[C@@]3(C)[C@H]2CC[C@]3(O)C(=O)CO)[C@@]2(C)C=CC(=O)C=C12 [Methylprednisolone]", "system": "MDA-MB-468", "numeric.value": 92.7}
{"compound": "CCN(CC)CCCC(C)Nc1c2ccc(Cl)cc2nc2ccc(OC)cc12 (stereo unspecified) [Mepacrine]", "system": "MDA-MB-468", "numeric.value": 104}
{"compound": "O=C(Cc1ccc(-c2ccc(OCCN3CCOCC3)cc2)cn1)NCc1ccccc1 [KX2-391]", "system": "MDA-MB-468", "numeric.value": 104}
{"compound": "C1CN1c1nc(N2CC2)nc(N2CC2)n1 [Triethylenemelamine]", "system": "MDA-MB-468", "numeric.value": 112}
{"compound": "CCCCC(=O)OCC(=O)[C@]1(O)Cc2c(O)c3c(c(O)c2[C@@H](O[C@H]2C[C@H](NC(=O)C(F)(F)F)[C@H](O)[C@H](C)O2)C1)C(=O)c1c(OC)cccc1C3=O [Valrubicin]", "system": "MDA-MB-468", "numeric.value": 105}
{"compound": "Nc1nc(F)nc2c1ncn2[C@@H]1O[C@H](CO)[C@@H](O)[C@@H]1O [Fludarabine]", "system": "MDA-MB-468", "numeric.value": 98.8}

* * *

- System: HDQ-P1
- measurement.parameters: 72 h
Each record here notes measured EC50, CellTiter-Glo.

{"compound": "Nc1ncn([C@H]2C[C@H](O)[C@@H](CO)O2)c(=O)n1", "system": "HDQ-P1", "readout.qualifier": ">", "EC50, CellTiter-Glo [nM]": 10000}
{"compound": "COc1cc([C@@H]2c3cc4c(cc3[C@@H](O[C@@H]3O[C@@H]5CO[C@@H](c6cccs6)O[C@H]5[C@H](O)[C@H]3O)[C@H]3COC(=O)[C@H]23)OCO4)cc(OC)c1O [Teniposide]", "system": "HDQ-P1", "readout.qualifier": "=", "EC50, CellTiter-Glo [nM]": 5210}
{"compound": "CC(=O)Nc1cccc(-n2c(=O)n(C3CC3)c(=O)c3c(Nc4ccc(I)cc4F)n(C)c(=O)c(C)c32)c1", "system": "HDQ-P1", "readout.qualifier": "=", "EC50, CellTiter-Glo [nM]": 1.7}
{"compound": "CCCCC(=O)OCC(=O)[C@]1(O)Cc2c(O)c3c(c(O)c2[C@@H](O[C@H]2C[C@H](NC(=O)C(F)(F)F)[C@H](O)[C@H](C)O2)C1)C(=O)c1c(OC)cccc1C3=O", "system": "HDQ-P1", "readout.qualifier": "=", "EC50, CellTiter-Glo [nM]": 661}
{"compound": "CC[C@@H]1C(=O)N(C)c2cnc(Nc3ccc(C(=O)NC4CCN(C)CC4)cc3OC)nc2N1C1CCCC1", "system": "HDQ-P1", "readout.qualifier": "=", "EC50, CellTiter-Glo [nM]": 21.4}
